Assign TGI to each entry below.
- System: SN12C renal
- ASSAY PROCEDURE: NCI tumour cell line growth inhibition, 48 h

Report its TGI with SN12C renal as the test system: `CC(C)NC(=O)OCc1c(COC(=O)NC(C)C)c(-c2ccc[n+](COC(=O)Cc3ccccc3)c2)n2c1CCC2`
> 100 µM

Fill: TGI (SN12C renal) for this compound O=C(COc1ccccc1Cl)N1N=C(c2ccccc2)CC1(O)c1ccccc1 (centres undefined)
25.6 µM

System SN12C renal. Read-out TGI. Item CNS(=O)(=O)OCC1OC(n2cnc3cncnc32)C(O)C1O (centres undefined) . Report value.
> 100 µM

With SN12C renal as the test system, provide measured TGI for this compound: `O=C(CCC(=O)Nc1ccc(Cl)c(Cl)c1)CC(=O)c1ccc2ccccc2c1`
> 100 µM

Report its TGI with SN12C renal as the test system: `CCN1c2ccccc2NC(=S)c2c1n[nH]c2-c1ccccc1`
> 100 µM

For SN12C renal, give TGI of the listed compound: `COc1cc(-c2cc3ncccc3c3nc(OCCN(C)C)c4cccnc4c23)cc(OC)c1OC`
3.09 µM

Fill: TGI (SN12C renal) for this compound `Oc1c(CN2CCCC2)ccc2cccnc12`
> 83.5 µM

Output reported TGI of the compound `N/C=N/S(=O)(=O)c1ccc(NC(=O)COC(=O)c2cccc3c(=O)c4ccccc4[nH]c23)cc1` on SN12C renal.
> 100 µM

# return TGI of `CCCCCCCCCCNCCSSCc1ccc(Cl)cc1` (system: SN12C renal)
3.86 µM

----------
- Tested on: SF-268 CNS
- ASSAY PROCEDURE: NCI tumour cell line growth inhibition, 48 h
MEASURE: TGI

// Input: `CC(C)(C)NC1=NC(C(F)(F)F)(C(F)(F)F)NC(=O)N1` . Output its TGI only.
> 100 µM

Supply recorded TGI for `CC(=O)O[C@H]1C(=O)[C@@]2(C)[C@H]([C@H](OC(=O)c3ccccc3)[C@]3(O)C[C@H](OC(=O)[C@H](O)[C@@H](NC(=O)c4ccccc4)c4ccc5ccccc5c4)C(C)=C1C3(C)C)[C@]1(OC(C)=O)CO[C@@H]1C[C@@H]2O` here.
> 50 µM

Answer with reported TGI of `CCOC(=O)c1[nH]cc(C)c1-c1cccn1-c1ccc(Cl)cc1[N+](=O)[O-]`
61.5 µM

Assign TGI to the following record: `NC(=O)c1cccc2c(N[C@H](CN3CCC3)c3ccc(Cl)c(C(F)(F)F)c3)ncnc12`
12.9 µM

Input `CN(C)CCNC(=O)c1cccc2ccc(-c3ccc(Br)cc3)nc12` , output reported TGI.
19.1 µM

Return reported TGI. Input compound: `COC(=O)c1c(O)ccc2c1c1cc3ccccc3cc1n2Cc1cc(OC)cc(OC)c1`
> 26.9 µM

# return recorded TGI for input `OCc1ccc(-c2csc(-c3ccc(CO)o3)c2)o1`
> 100 µM

Please list TGI recorded for the compound COC1=CC(c2ccc[nH]2)=N/C1=C\c1[nH]c(C)c(C(=O)CCC(=O)Oc2ccc3c(c2)CCC2C3CC[C@]3(C)[C@@H](O)CC[C@@H]23)c1C (stereo partly drawn)
> 100 µM

Tell us which TGI value is on record for `Fc1ccc(-c2sc(-c3ccsc3)cc2Cc2ccsc2)cc1`
> 10 µM

Identify TGI associated with the compound `O=C1c2cc(I)ccc2N2CCN=C2N1Cc1ccccc1`
> 100 µM

Provide measured TGI value, entry: `C/C(CCn1[nH]c(=O)ccc1=O)=N\NC(=O)C(N)=O`
> 100 µM

Specify TGI for COc1cc(C2S/C(=C/c3ccccc3)C(=O)N2Cc2ccccc2)cc(OC)c1OC (stereo not drawn) and stop.
> 100 µM

Identify measured TGI associated with `COc1cc(CC(C)=O)cc(OC)c1`
> 100 µM

Look up TGI of CC[C@@]1(O)C[C@H](OC2CC(N(C)C)C(O)C(C)O2)c2c(cc3c(c2O)C(=O)c2c(O)ccc(O)c2C3=O)[C@H]1C(=O)OC (stereo partly drawn) and report it.
0.68 µM

Give me measured TGI, please, for this compound: COC1OCC(O)C(NC(=O)N(C)N=O)C1O (stereo not drawn)
> 100 µM

Given `O=C(O)CCCCn1ccc(=O)[nH]c1=O` , respond with its TGI.
> 100 µM

Give TGI for COC(=O)C1=COC2OC3C(C(C)O)C(=O)OC34C=CC1C24 (stereo not drawn)
> 100 µM

Specify measured TGI for `O=C(CCCn1c2c(sc3ccccc32)c(=O)n2nnc(-c3ccccc3)c12)NCCc1cnc[nH]1` .
4.35 µM

Give me measured TGI, please, for this compound: `CCC(C)(C)c1cc(O)c(C(C)(C)CC)cc1O`
15.6 µM

Answer with the recorded TGI of `CCC(=O)Nc1cccc(N=Cc2ccc(OC(=O)/C=C\c3ccccc3)cc2)c1` only.
> 75 µM

Answer with the recorded TGI for the compound listed here: COC(=O)CN(CC(=O)NCCCBr)C1CCCCC1N(CC(=O)OC)CC(=O)OC (stereo not drawn)
> 100 µM

Annotate the compound `CCCCCCSc1nc(N)nc2nc[nH]c12` with its measured TGI.
> 100 µM

Consider the compound COc1cc(C2c3cc4c(cc3OC(NNc3ccccc3)C2C)OCO4)cc(OC)c1OC (stereo not drawn) . State its measured TGI.
38.1 µM

Answer with the recorded TGI for the compound listed here: CC(C)C(Nc1ncnc2nc[nH]c12)C(=O)O (stereo not drawn)
> 100 µM

Supply measured TGI of `Nn1c(Nc2ccc(S(N)(=O)=O)cc2)nnc(/C=C/c2c(O)ccc3ccccc23)c1=O` in your reply.
> 100 µM

Identify TGI associated with the compound `O=C1/C(=C/c2ccc(Cl)cc2)Oc2cc(O)ccc21`
> 100 µM

Return TGI (reported value) for this compound: `COc1cccc(C=O)c1C(=O)c1cc(O)ccc1O`
> 55.4 µM

For the compound CC(C)=CC1C(C(=O)Oc2ccccc2C(C)C)C1(C)C (stereo not drawn) , report TGI.
> 100 µM

Respond only with TGI recorded for `Fc1cc(F)c(F)c(S)c1F`
> 100 µM

Report TGI, nothing else, for this compound: `Cn1c(-c2ccc(-c3cc(-c4cccs4)c(-c4cccs4)n3C)cc2)cc(-c2cccs2)c1-c1cccs1`
> 100 µM

Please give the documented TGI of CC1CCC2C(C)C(=O)OC3OC4(C)CCC1C32OO4 (stereo not drawn)
> 100 µM

Assign TGI to the following record: `COc1ccc(-c2oc3ccccc3c(=O)c2O)cc1OC`
53 µM

Look up and state reported TGI for CC(C)(C)N/N=C(\C(=O)Nc1cccc(Cl)c1)C1C(=O)Nc2ccccc2S1=O (stereo not drawn)
> 100 µM

----------
- System: RXF 393 renal
- ASSAY PROCEDURE: NCI tumour cell line growth inhibition, 48 h
Where a SMILES comes first, the peptide text is derived from it. The star is where a group is joined. Boc = CC(C)(C)OC(=O)*
MEASURE: TGI

Look up and report measured TGI for this entry: `c1coc(-c2nccc3c2[nH]c2ccccc23)c1`
> 100 µM

Give the reported value of TGI for this record: `C/C(CCC(=O)O)=N/Nc1ccc([N+](=O)[O-])cc1`
> 100 µM

Fill in reported TGI for this entry: `CN(C)CN1CSC(=S)N(CN(C)C)C1`
> 100 µM

Given the compound `CS(=O)(=O)N1CCC(n2c(=O)c(Oc3ccc(F)cc3F)cc3cnc(NC4CCOCC4)nc32)CC1` , write its reported TGI.
> 25 µM

Please list TGI recorded for the compound `COc1ccc(/C=C/C(=O)c2c(O)ccc3c(C)c(C(=O)O)oc23)cc1`
> 100 µM

Please supply the value of reported TGI for the item `O=P(O)(O)c1ccc(-c2ccc(I)cc2)cc1`
> 100 µM

Provide measured TGI value, entry: `CSc1cc(Cl)c(C)cc1S(=O)(=O)NC(=O)NNc1ccc(F)cc1`
> 100 µM

Query TGI for `COc1ccc2c(c1)[n+]([O-])c(-c1cccc(Cl)c1)c(N)[n+]2[O-]`
> 100 µM

Report TGI, nothing else, for this compound: `O=C(Cn1c(C(=O)c2ccc(Cl)cc2)nc(-c2ccc(Cl)cc2)c1-c1ccc(Cl)cc1)c1ccccc1`
> 100 µM

Provide measured TGI value, entry: COC1/C=C/C=C(/C)Cc2cc(O)c(Cl)c(c2)N(C)C(=O)CC(OC(=O)C(C)C)C2(C)OC2C(C)C2CC1(O)NC(=O)O2 (centres undefined)
> 100 µM

Return reported TGI. Input compound: COC(=O)[C@H](CC(C)C)NC(=O)[C@H](Cc1ccccc1)N1CC2C=CC1C2 (some centres undefined)
> 100 µM

Indicate its recorded TGI; the compound in question is CSc1ncc2c(n1)-c1ccccc1OC2N1CCOCC1 (centres undefined)
> 100 µM

Output measured TGI for this item: `CC1=NN(C(=O)Cc2ccccc2)C(=O)/C1=C\c1ccc([N+](=O)[O-])cc1`
> 100 µM

Give the reported value of TGI for this record: CC(C)(C)COC(=O)C(C)(C)NC(=O)C(CC(=O)OCc1ccccc1)NC(=O)OCc1ccccc1 (centres undefined)
> 100 µM

Supply measured TGI of `Cn1c(-c2ccc(-c3cc(-c4cccs4)c(-c4cccs4)n3C)cc2)cc(-c2cccs2)c1-c1cccs1` in your reply.
> 100 µM

Dear colleague, please send me the reported TGI for COC(=O)C1CSC(c2csc(CCN)n2)=N1 (centres undefined) when you can.
> 100 µM

Recall and state the measured TGI for CCOP(=O)(CCCC(O)CNc1nc(N)nc(Cl)c1N=Nc1ccc(Cl)cc1)OCC (centres undefined) .
18.5 µM

Tell me TGI reported for O=C(Cc1ccccc1[N+](=O)[O-])C(CO)c1ccccc1[N+](=O)[O-] (centres undefined)
> 100 µM

Answer with the recorded TGI of `CC(=O)C1=C(C)O[C@@H]2O[C@H](COCc3ccccc3)[C@@H](OCc3ccccc3)[C@H](O)[C@@H]2S1` only.
47.7 µM

Tell me TGI reported for COC(=O)C(Cc1ccccc1)NC(=O)C(CS)NC(=O)OC(C)(C)C (stereo not drawn) (Boc-Cys-Phe-OMe; configuration not given here)
> 100 µM

Report measured TGI; entry is `ClCCCSSCCCCl`
> 100 µM

For the compound COc1cc(C2c3cc4c(cc3OC(NNc3ccccc3)C2C)OCO4)cc(OC)c1OC (centres undefined) , report TGI.
> 94.3 µM

Item `COC(=O)c1cc(NC(=O)c2cc(NC(=O)c3cc([N+](=O)[O-])n(C)c3)cn2C)cn1C` : provide TGI
> 100 µM

Using the record for CCCCCCC1N=C(N)N=C(N)N1c1cccc(Cl)c1 (centres undefined) , state its measured TGI.
15.7 µM
